Assay: Counterscreen qHTS for Inhibitors of Tau Fibril Formation, Fluorescence Polarization; note: nearly all actives have a fitted effect of over 55% in size
Settings: tau K18 P301L (four-repeat tau fragment) Alexa594 fluorescence, heparin fibrillization; series mostly up to 57.7 µM
About 2,600 (0.93%) of roughly 280,000 compounds were called active. Inconclusive results (about 8%) are left out. Calls come from the whole dose curve; as a rule, active = well fitted curve in the direction sought with a large enough effect; inconclusive = small, poorly fitted or top-dose-only effect; inactive = flat fitted curve, though single readings scatter. Only a selection was taken, and actives are over-represented in it overall.
Classes to choose from: 1.0 for active, 0.0 for inactive

Solved cases below.
* Cc1c(NC(=O)C(C)(C)C)cccc1-c1nc2ccccc2s1 | 0.0
* COCCNC(=O)Nc1ccc2nc(-c3ccco3)c(-c3ccco3)nc2c1 | 1.0
* CC(C)=CCc1c(O)c(CC=C(C)C)c2occ(-c3ccc(O)cc3)c(=O)c2c1O | 1.0
* CCOC(=O)C1=C(C)NC(=O)NC1c1ccccc1 (stereo not given) | 0.0
* CCOc1ccccc1C(=O)NC1(C(F)(F)F)NC(=O)N(CCc2ccc(OC)c(OC)c2)C1=O (stereo not given) | 0.0

Consider the additional compound presented here.
Enquiry: Per the assay record, what outcome was assigned to CCOC(=O)C1=C(C)N=C2c3ccccc3C(=O)C2C1c1ccc(Br)cc1 (stereo not given) ?
Return: 1.0

Sourced from PubChem BioAssay AID1463
